Data origin, for the record: paper PMC5540273

What %Inh was measured for each of the following?
System: FER
Conditions: concentration: 1 μM, replicates: in singlicate; n = 1;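 note: KINOMEscan kinase panel screen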
Just the number in %, nothing appended.

stdin: May I ask what %Inh has been recorded for Cc1ccc(C(=O)Nc2ccc(Nc3ccnc4cc(-c5ccccn5)ccc34)cc2O)cc1.Cl [GW440146] ?
stdout: 30

stdin: Suppose we examine the compound Cc1c(Cn2ccn3c(=O)cc(N4CCOCC4)nc23)cccc1C(F)(F)F [GSK2289044] ; what %Inh value has been reported?
stdout: 7

stdin: Look up %Inh: Cc1ccc(NC(=O)Nc2cc(C(C)(C)C)nn2-c2ccccc2)cc1 [GSK1014915]
stdout: 20

stdin: Looking for the measured %Inh of COc1cc(Nc2nccc(N3CCC(NC(=O)Nc4cc(C)ccc4C)C3)n2)cc(OC)c1OC (centres unmarked) [GSK1379762] , can you help?
stdout: 0

stdin: Any idea what its %Inh is? The compound is COc1ccc(Nc2nccc(NCCNC(=O)Nc3ccccc3F)n2)cc1 [GSK1379901]
stdout: 35

stdin: # lookup: %Inh of COc1ccc(C2=C(Nc3cccc(C(=O)O)c3)C(=O)NC2=O)cc1 [SB-390765]
stdout: 0

stdin: Which value of %Inh has been reported for COC(=O)c1c(-c2ccccc2)c2cc(C(=O)O)ccc2c(=O)n1Cc1ccccc1 in the records?
stdout: 0

stdin: Looking for the measured %Inh of CC(C)(C)c1ccc(C(=O)Nc2cn3cc(Cl)ccc3n2)cc1 , can you help?
stdout: 4

###

Consider the following molecules; for each one, report its %Inh.
Test system: MAP3K15
Details: concentration: 1 μM, replicates: in singlicate; n = 1
Write the number in % without appending the unit.

stdin: Given the molecule Cc1c(O)cccc1Nc1ccnc2ccc(C(F)(F)F)cc12.Cl , what is its reported %Inh?
stdout: 0

stdin: Need %Inh of COc1ccc2nc(-c3cccc(C)n3)nc(Nc3ccncc3)c2c1 , thanks.
stdout: 0

stdin: Look up %Inh: Nc1nc(-c2nccs2)c(-c2ccnc3ccccc23)s1
stdout: 0

stdin: Please look up its %Inh: Cl.c1ccc(-c2n[nH]cc2-c2ccnc(-c3ccc(CN4CCOCC4)cc3)c2)nc1
stdout: 0

stdin: Record request: %Inh value, item O=C(O)COc1ncnc2cc(-c3ccc4[nH]ncc4c3)sc12
stdout: 53

stdin: Which %Inh is listed for Cl.Oc1ccc(-c2nc(-c3ccccc3)[nH]c2-c2ccncc2)cc1 ?
stdout: 0

stdin: If you can, please state the reported %Inh value of COc1cc2nccc(Nc3ccc(NC(=O)c4ccc(C)cc4)c(O)c3)c2cc1OC.Cl .
stdout: 13

stdin: Return reported %Inh; argument: Cc1cccc(-c2nc(-c3ccc(S(C)(=O)=O)cc3)sc2-c2ccnc(NCCc3ccccc3)c2)c1
stdout: 10

stdin: Dear colleague, I am looking for the recorded %Inh of the following molecule: O=c1cc(N2CCOCC2)nc2n(Cc3cccc(Cl)c3Cl)ccn12
stdout: 0

###

Test system: MAP3K1
Conditions: concentration: 1 μM, replicates: in singlicate; n = 1
Metric: %Inh (%)
Please respond with the number in % and leave the unit unwritten.

stdin: Data request, read-out %Inh, for O=C(Nc1ccc2c(c1)OCO2)NC1CCN(c2ccnc(Nc3ccc(F)cc3)n2)C1 (centres unmarked)
stdout: 11

stdin: // query %Inh value for entry Cc1ccc(-c2cc(-c3c[nH]nc3-c3ccccn3)ccn2)cc1
stdout: 9

stdin: Returns the measured %Inh for the input compound. Input: Cc1cccc(-c2nc(Nc3cccc(C(N)=O)c3)c3ccccc3n2)n1
stdout: 3

stdin: Data request, read-out %Inh, for COc1ccc(Nc2nccc(-c3cccc(NC(=O)c4cc5cc(F)ccc5[nH]4)c3)n2)cc1
stdout: 5

stdin: Find the recorded %Inh belonging to Cn1ccc2ncnc(Oc3ccc(Nc4nc5ccccc5[nH]4)cc3)c21 and report it.
stdout: 0
